The origin of these recorded values is patent US8822447B2.

List of IC50 tested on KHK (Homo sapiens (Human), UniProt P50053).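 Note: primary screen measuring inhibition of KHK-catalysed conversion of D-fructose into fructose 1-phosphate.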
Sequence (P50053 whole entry): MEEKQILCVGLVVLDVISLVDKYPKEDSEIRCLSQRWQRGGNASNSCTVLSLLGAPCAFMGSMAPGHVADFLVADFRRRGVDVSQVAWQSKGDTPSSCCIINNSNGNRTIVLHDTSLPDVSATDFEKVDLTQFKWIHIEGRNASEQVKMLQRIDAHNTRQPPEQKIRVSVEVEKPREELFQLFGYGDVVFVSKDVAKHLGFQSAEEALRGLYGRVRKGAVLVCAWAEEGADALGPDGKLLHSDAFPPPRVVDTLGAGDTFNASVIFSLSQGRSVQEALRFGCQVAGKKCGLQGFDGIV

IC50 recorded for this molecule, `CSc1nn(-c2ccccc2C)c2cc(C3=CCNCC3)ccc12` , is > 10 µM

Kindly note the recorded IC50 for CSc1nn(-c2ccccc2)c2cc(C(O)c3ccncc3)ccc12 (stereo not drawn) , which is > 2 µM

Consider `CSc1nn(-c2ccc([N+](=O)[O-])cc2)c2cc(C3=CCN(C(=O)CN)CC3)ccc12` . Its measured IC50 is > 10 µM
